- procedure-summary: Pharmacokinetics, oral gavage
- settings: female, Swiss Webster, mouse, plasma, po, 200 mg/kg, plasma concentration, mice, 200 mg/kg p.o., 30 min
property-name: concentration at 30 min (nM)
// note: answer is a bare numeric in nM

Ask | Fill blank: measured concentration at 30 min of the molecule "CCc1ccccc1-c1nc(CN[C@@H]2C[C@@H]3C[C@H]([C@H]2C)C3(C)C)c(C)o1" is ____.
Reply | 710

----------
- target-or-system: PfTrxR (Plasmodium falciparum, UniProt Q25861)
- Construct: 6-His (N); made in house; host or cells: E. coli BL21 (DE3)
- Sequence (Q25861 1-541): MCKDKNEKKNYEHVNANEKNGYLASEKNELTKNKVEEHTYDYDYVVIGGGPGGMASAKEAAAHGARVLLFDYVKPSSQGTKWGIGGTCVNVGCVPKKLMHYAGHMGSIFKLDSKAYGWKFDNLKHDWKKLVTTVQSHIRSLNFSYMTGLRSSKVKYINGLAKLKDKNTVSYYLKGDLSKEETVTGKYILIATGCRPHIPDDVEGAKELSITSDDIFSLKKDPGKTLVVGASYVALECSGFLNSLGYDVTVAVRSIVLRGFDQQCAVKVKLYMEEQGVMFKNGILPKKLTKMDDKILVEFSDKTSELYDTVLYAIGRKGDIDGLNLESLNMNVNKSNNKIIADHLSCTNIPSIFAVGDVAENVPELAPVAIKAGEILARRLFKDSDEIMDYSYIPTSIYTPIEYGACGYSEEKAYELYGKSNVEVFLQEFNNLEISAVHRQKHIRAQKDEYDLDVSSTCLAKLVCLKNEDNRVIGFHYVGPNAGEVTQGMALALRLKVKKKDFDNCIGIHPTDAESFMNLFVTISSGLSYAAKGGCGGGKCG
- procedure-summary: P. falciparum TrxR enzyme inhibition
- Assay type: biochemical
Recorded inhibition at 25 µM by entry
// note: answer is a bare numeric in %

Some compounds with recorded inhibition at 25 µM:
>  <compound>
Cc1oc(C2CCCCC2)nc1C(=O)N[C@@H]1C[C@@H]2C[C@H]([C@H]1C)C2(C)C

>  <target-or-system>
PfTrxR (Plasmodium falciparum, UniProt Q25861)

>  <property-name>
inhibition at 25 µM

>  <obs-value>
4.13

$$$$
>  <compound>
CCc1ccccc1-c1nc(CN[C@@H]2C[C@@H]3C[C@H]([C@H]2C)C3(C)C)c(C)o1

>  <target-or-system>
PfTrxR (Plasmodium falciparum, UniProt Q25861)

>  <property-name>
inhibition at 25 µM

>  <obs-value>
-45.1

$$$$
>  <compound>
CC1C(NCc2cn(C3OCC(O)C(O)C3O)c3ccccc23)CC2CC1C2(C)C (stereo not drawn)

>  <target-or-system>
PfTrxR (Plasmodium falciparum, UniProt Q25861)

>  <property-name>
inhibition at 25 µM

>  <obs-value>
8.79

$$$$
>  <compound>
C[C@@H]1[C@H]2C[C@@H](C[C@H]1NCc1nc3ccccc3n1C1CCCCCC1)C2(C)C

>  <target-or-system>
PfTrxR (Plasmodium falciparum, UniProt Q25861)

>  <property-name>
inhibition at 25 µM

>  <obs-value>
-0.643

$$$$
>  <compound>
Cc1oc(C2CCCCC2)nc1CN[C@@H]1C[C@@H]2C[C@H]([C@H]1C)C2(C)C

>  <target-or-system>
PfTrxR (Plasmodium falciparum, UniProt Q25861)

>  <property-name>
inhibition at 25 µM

>  <obs-value>
4.57

$$$$

Ask | Fill blank: measured inhibition at 25 µM of the compound "Cc1oc(-c2ccc3ccccc3c2)nc1CNC1CCCCCC1" is ____.
Reply | -0.0146
